- protocol text: label from the status in PepcDB records
property name: protein production

MIFVLLICPLFIFIVSVIGTRKTKTYYVMPIVTFASFLIIGVIAFTPKFFFWVGMYSIFSFIVSYMTLLFVKGYEVAENAK ... failed
METAITRMLGIRYPIVAAPMFLVSNAPLLQAVAEAGGIGVIPSLNFRTHQAFREFLESFPEGVPFGVNLILKGNPRLEEDLEAVVERRVPLVVTSLGDPTRVVERVKAYGGVVWCDVVGLRHGRKAVEAGADALVAVACGAGGHAGRVSPFVLGPWLREELGVPVLIAGGIATGRQVLAALALGDGVYIGTRFIATLESGAPLEYKEALLRAQPEDIEYTPEVTGVPANFLRESLERFRQGGGKAWKEVYSAGHGVAFIREIPSAKEVVARLVEEYRAAKAGLP ... failed
HARPAGQLKVHSMPGVGQHYVIDAIARYRRNHPDVAFDLTMTHRVPDLLEEGFDVSIVLASELADSGFVSQRLGITYSIVCASPEYVKTFGMAHKPADLLNHACLRLVSPVFP ... failed

* * *

- protocol text: label from the status in PepcDB records
property name: protein production

MDLKESQEFSGLIAGKPRISYQNDYGGHRTNLHLLDSRLWIILSGQAAILGFCGNTVLAEDESMKSKSGDNMDESGNTGLEKIEDGSVVSNIHTSKWRVFTDSGRDYFFQGKLEPAERLFGSAIQEAKEGFGEKDPHVASACNNLAELYRVKKEFDKAEPLYLEAVSILEEFYGPDDVRVGATLHNLGQLYLVQRKLEEARACYEIRRCVFAVISYVKNYDELES ... failed
MGISNWQPTMRAACWMSGALVSLLAMAVATRELSAHVSVFQILFFRSACGLLIIVPLVWRAGWRKVATARPGLHVLRNATHFLAQYGWVYGIAFIPMAEVFAIEFTVPVWTALLAAVLLGERLTAARLLAVALGLAGVFVIVRPGSGMIHPAALAVLLGAVAFALAYIMTKMLARTETPLCILFYMTLVQLPLGLAPALANWSSPPPHVWPWILVVGTMGLATHYCLARAMALADATVVVPLDFLRLPLIAVVGAVFYGEAIEPLLFLGAGMILAGNLYSILAERRRPAMPRAARDGSH ... failed
